- system.under.test: L-lactate dehydrogenase (Plasmodium falciparum (isolate CDC / Honduras))
- protocol: PfLDH activity inhibition – cell lysate, 3D7 strain, counter-screen for P. falciparum growth inhibition project (AID 2304);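 also: 0% = vehicle and 100% = reference inhibitor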
- assay.context: P. falciparum 3D7 crude extract, LDH APAD/NBT absorbance; at 2 µM; stronger effect = higher value
quantity: inhibition (%)

{"columns": ["molecule", "recorded.measurement"],
 "data": [
  ["CC(=O)C=C1CC(=O)N(C[C@@H](O)[C@H]2O[C@@H]3OC(C)(C)O[C@@H]3[C@H]2O)c2ccccc2N1", 3],
  ["N#Cc1cncc(-c2nc3c(N4CCC(Cc5ccccc5)CC4)cccc3n2CCNCc2ccccc2)c1", -1],
  ["CCOc1ccc(C2CCN(CCN3CCC(NC(=O)c4ccc(-c5ccc(C(F)(F)F)cc5)cc4)CC3)CC2)c(OCC2CC2)c1", -9],
  ["CN(C)Cc1cccc2[nH]c(-c3csc(Cc4cc(Cl)ccc4OCc4ccccc4)n3)nc12", -2],
  ["Cc1cc(C(=O)CN2C(=O)NC(C)(c3ccc4ccccc4c3)C2=O)c(C)n1Cc1ccco1 (stereo not drawn)", 1],
  ["Cc1cc([N+](=O)[O-])ccc1N1CCN(CCCCNC(=O)c2ccc(NC(=O)c3ccc(Cl)cc3)cc2)CC1", 2],
  ["O=C(/C=C/c1ccc(Cl)c(Cl)c1)NC1CCC(CN2CCC(c3coc4ccccc34)CC2)CC1 (stereo not drawn)", 3],
  ["CCCOc1ccc(C(F)(F)F)cc1NC(=O)c1nc2nc(C)cc(C)n2n1", -4]
]}
